# assay_protocol: in vitro
# condition_set: human, liver microsomes
I'd appreciate it if you marked entries criterion met when microsomal CLint is lower than 20 µL/min/mg and criterion not met when it is not.

Prompt line: Please determine if N#Cc1ccc2[nH]c(-c3ccc(F)cc3)c(CCCC(=O)NS(N)(=O)=O)c2c1 is below 20 µL/min/mg in terms of microsomal CLint.
Response line: criterion met

Prompt line: Please determine if N=C(N)c1cc2c(/C=C/c3ccc4c(c3)OCO4)cccc2s1 is below 20 µL/min/mg in terms of microsomal CLint.
Response line: criterion met

Prompt line: Please determine if COc1ccccc1CN(C)Cc1cccc(CCNC[C@H](O)c2ccc(O)c3[nH]c(=O)sc23)c1 is below 20 µL/min/mg in terms of microsomal CLint.
Response line: criterion not met

Prompt line: Please determine if Cc1ccc2c(c1)C1(CCN(CCc3nc(-c4ccccc4)oc3C)CC1)OC(=O)N2 is below 20 µL/min/mg in terms of microsomal CLint.
Response line: criterion not met

Prompt line: Please determine if Cc1n[nH]c(C)c1Cc1sc2c(c1C(=O)N1C[C@H](O)CO1)c(=O)n(C)c(=O)n2CC(C)C is below 20 µL/min/mg in terms of microsomal CLint.
Response line: criterion met

Prompt line: Please determine if CC(C)c1ccc(NC(=O)NCCCSC[C@H]2O[C@@H](n3cnc4c(N)ncnc43)[C@H](O)[C@@H]2O)cc1 is below 20 µL/min/mg in terms of microsomal CLint.
Response line: criterion not met

Prompt line: Please determine if CN(C(=O)Cc1ccc(S(N)(=O)=O)cc1)C1CCN(CCC(c2ccccc2)c2ccccc2)CC1 is below 20 µL/min/mg in terms of microsomal CLint.
Response line: criterion met

Prompt line: Please determine if C[C@H](Oc1ccc(Cl)cc1CN1CCN(C(=O)Cc2ccc(Cl)cc2)[C@@H](C)C1)C(=O)O is below 20 µL/min/mg in terms of microsomal CLint.
Response line: criterion met

Prompt line: Please determine if N#Cc1c(O)c2c(-c3ccc(-c4ccccc4O)cc3)csc2[nH]c1=O is below 20 µL/min/mg in terms of microsomal CLint.
Response line: criterion met

Prompt line: Please determine if CCOc1ccc2oc(C(=O)NC(CCSC)c3nc4cnccc4[nH]3)c(C)c2c1 (stereo not given) is below 20 µL/min/mg in terms of microsomal CLint.
Response line: criterion met

Prompt line: Please determine if O=C(O)CCc1ccc(OCc2cccc(Br)c2)cc1 is below 20 µL/min/mg in terms of microsomal CLint.
Response line: criterion met

Prompt line: Please determine if Cc1cccc(CN2CCC3(CC2)CCN(C(=O)c2ccccc2)CC3)c1 is below 20 µL/min/mg in terms of microsomal CLint.
Response line: criterion met

Prompt line: Please determine if COc1ccc(OC)c(CNC(=O)c2cccnc2Oc2ccccc2)c1 is below 20 µL/min/mg in terms of microsomal CLint.
Response line: criterion not met

Prompt line: Please determine if CC(NCC(O)c1ccc([N+](=O)[O-])cc1)C12CC3CC(CC(C3)C1)C2 (stereo not given) is below 20 µL/min/mg in terms of microsomal CLint.
Response line: criterion not met

Prompt line: Please determine if Cc1ccc(S(=O)(=O)NC(=O)N2CCC(N3CCC(Oc4ccc(F)c(F)c4)CC3)CC2)cc1 is below 20 µL/min/mg in terms of microsomal CLint.
Response line: criterion met

Prompt line: Please determine if COc1cc(NC(C)CCCN)c2ncccc2c1 (stereo not given) is below 20 µL/min/mg in terms of microsomal CLint.
Response line: criterion met

Prompt line: Please determine if COc1ccnc(NC2CCN(C(=O)c3ccccc3)CC2)c1 is below 20 µL/min/mg in terms of microsomal CLint.
Response line: criterion met

Prompt line: Please determine if CCCCC(CC)CNC(=O)c1cc(-n2ncc(=O)[nH]c2=O)ccc1Cl (stereo not given) is below 20 µL/min/mg in terms of microsomal CLint.
Response line: criterion not met

Prompt line: Please determine if CN(CCNC[C@H](O)c1ccc(O)c2[nH]c(=O)sc12)C(=O)CCOCCc1ccccc1 is below 20 µL/min/mg in terms of microsomal CLint.
Response line: criterion not met

Prompt line: Please determine if N#Cc1cccc(-c2cc(C(F)(F)F)ccc2OCC(=O)O)c1 is below 20 µL/min/mg in terms of microsomal CLint.
Response line: criterion met
